B1: Arginine-glutamic acid dipeptide repeats protein, residues 502 to 543; numbered along this chain, Q9P2R6 (parent)
chain: LKGYACRHCFTTTSKDWHHGGRENILLCTDCRIHFKKYGELP

- Variants of: B1
- experiment: abundance fitness (aPCA) (normalised: wild type 0, dead -1); higher = more abundant; growth selection in yeast, the domain comes from the species named
- assayConditions: Homo sapiens
measurementName: abundance fitness
Numbers only.

>>> measured("C6T")
-0.902
>>> measured("R22M")
-0.172
>>> measured("S14C")
-0.315
>>> measured("D16Q")
-0.449
>>> measured("C6M")
-1.1

Dear colleague, could you send me abundance fitness for each of the items below? Thanks.
1. K36P
2. H18D
3. H34M

Reply:
1: -0.363; 2: 0.115; 3: -0.204

Query: Dear colleague, I am looking for the recorded abundance fitness of the following variant: G21H
Reply: -0.044
